Target: Na^+ /H^+ exchanger of rabbit erythrocytes (Oryctolagus cuniculus)
Construct: endogenous in cells
Sequence (P23791 whole entry): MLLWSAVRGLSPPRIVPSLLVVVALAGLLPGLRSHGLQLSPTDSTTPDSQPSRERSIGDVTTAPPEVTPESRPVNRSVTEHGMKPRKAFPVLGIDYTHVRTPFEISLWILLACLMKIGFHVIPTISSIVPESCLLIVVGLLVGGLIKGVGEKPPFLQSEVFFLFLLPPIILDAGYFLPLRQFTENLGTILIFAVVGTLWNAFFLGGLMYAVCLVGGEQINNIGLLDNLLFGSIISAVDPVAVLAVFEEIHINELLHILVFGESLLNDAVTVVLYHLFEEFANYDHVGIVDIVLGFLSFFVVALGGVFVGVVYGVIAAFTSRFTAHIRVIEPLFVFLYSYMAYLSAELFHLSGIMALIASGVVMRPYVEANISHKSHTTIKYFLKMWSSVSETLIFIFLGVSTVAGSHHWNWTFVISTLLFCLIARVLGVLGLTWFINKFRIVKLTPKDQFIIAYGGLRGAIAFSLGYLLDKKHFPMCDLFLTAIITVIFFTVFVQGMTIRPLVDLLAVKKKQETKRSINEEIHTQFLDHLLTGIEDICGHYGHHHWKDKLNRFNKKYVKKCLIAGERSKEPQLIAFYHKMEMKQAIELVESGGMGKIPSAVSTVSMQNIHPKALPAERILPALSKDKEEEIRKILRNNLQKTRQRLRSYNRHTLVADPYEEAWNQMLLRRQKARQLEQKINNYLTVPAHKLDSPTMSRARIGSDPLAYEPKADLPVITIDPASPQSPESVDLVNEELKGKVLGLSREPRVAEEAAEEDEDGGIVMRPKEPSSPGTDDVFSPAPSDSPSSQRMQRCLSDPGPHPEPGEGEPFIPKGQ
Assay: Inhibition of the Na^+ /H^+ exchanger of rabbit erythrocytes (Na^+ influx by flame photometry)
Conditions: pH 7.4, 37° C., hyperosmolar salt/sucrose medium, cholesterol-fed rabbits, read-out: IC 50, Na^+ /H^+ -exchanger inhibition
Where a name gives a salt, the structure may show the parent alone.
Overview of reported IC50 across a group of compounds:
Measurement name: IC50 (µM)

INSERT INTO assay_data (compound, assay_result) VALUES
  ('NC(N)=NC(=O)CCc1cccc(OC(F)(F)F)c1 [Example 3, hydrochloride]', 0.7),
  ('NC(N)=NC(=O)CCc1ccccc1C(F)(F)F', 0.5),
  ('CC(Cc1cccc(C(F)(F)F)c1)C(=O)N=C(N)N (racemic) [Example 5, hydrochloride]', 0.05),
  ('NC(N)=NC(=O)CCc1cccc(C(F)(F)F)c1', 0.6);
